Would you mind telling me the reported Kd of each entry?
SYSTEM_TESTED: T1, Aggregatibacter actinomycetemcomitans leukotoxin (LtxA) (Aggregatibacter actinomycetemcomitans …, UniProt P16462 1-1055)
T1 sequence: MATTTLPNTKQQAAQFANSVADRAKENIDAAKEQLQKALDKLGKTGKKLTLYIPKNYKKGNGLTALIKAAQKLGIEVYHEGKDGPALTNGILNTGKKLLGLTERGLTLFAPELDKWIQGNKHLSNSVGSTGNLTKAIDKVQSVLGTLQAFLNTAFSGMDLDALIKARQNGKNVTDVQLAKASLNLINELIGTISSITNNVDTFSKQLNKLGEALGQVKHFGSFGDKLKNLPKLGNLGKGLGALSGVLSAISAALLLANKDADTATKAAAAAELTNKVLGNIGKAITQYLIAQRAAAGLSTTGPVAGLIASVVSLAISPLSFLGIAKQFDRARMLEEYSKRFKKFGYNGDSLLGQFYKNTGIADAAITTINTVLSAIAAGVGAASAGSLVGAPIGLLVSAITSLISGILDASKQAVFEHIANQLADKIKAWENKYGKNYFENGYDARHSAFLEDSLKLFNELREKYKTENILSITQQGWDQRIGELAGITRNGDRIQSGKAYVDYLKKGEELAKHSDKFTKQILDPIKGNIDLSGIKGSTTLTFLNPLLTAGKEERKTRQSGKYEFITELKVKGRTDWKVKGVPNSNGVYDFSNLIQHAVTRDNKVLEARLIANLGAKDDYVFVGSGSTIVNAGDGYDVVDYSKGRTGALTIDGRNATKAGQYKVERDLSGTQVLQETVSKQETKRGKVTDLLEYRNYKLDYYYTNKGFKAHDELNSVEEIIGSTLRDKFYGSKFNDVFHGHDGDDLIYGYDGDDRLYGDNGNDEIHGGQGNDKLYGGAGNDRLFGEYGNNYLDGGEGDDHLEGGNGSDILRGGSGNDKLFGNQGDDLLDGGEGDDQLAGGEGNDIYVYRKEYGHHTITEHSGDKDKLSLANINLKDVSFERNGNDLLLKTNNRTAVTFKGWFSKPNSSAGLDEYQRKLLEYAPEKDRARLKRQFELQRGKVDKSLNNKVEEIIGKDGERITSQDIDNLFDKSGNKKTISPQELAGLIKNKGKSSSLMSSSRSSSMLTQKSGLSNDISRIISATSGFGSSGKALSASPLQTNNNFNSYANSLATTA
PROTOCOL: SPR
One number for each entry, in nM.

For each entry beneath this line, provide reported Kd.
1. CKLLITIHDRKEFAKFEEERARAKWDTANNPLYKEATSTFTNITYRGT [β3 cytoplasmic tail peptide (integrin β3)]
2. CKALIHLSDLREYRRFEKEKLKSQWNNDNPLFKSATTTVMNPKFAES [β2 cytoplasmic tail peptide (integrin β2, LFA-1 β subunit)]
3. CKLGFFKRQYKDMMSEGGSPGAEPQ [αM cytoplasmic tail peptide (integrin αM)]
4. CKALIHLSDLREYRRFEKEKLKSQWNN [β2N2 peptide (longer N-terminal part of the β2 cytoplasmic tail, with WNN)]

Result ::
230
4.2
400
9.4

For each entry beneath this line, provide reported Kd.
1. CKVGFFKRQYKEMMEEANGQIAPENGTQTPSPPSEK [αX cytoplasmic tail peptide (integrin αX)]
2. CLKSQWNNDNPLFKSATTTVMNPKFAES [β2C peptide (C-terminal part of the β2 cytoplasmic tail)]

Result ::
180
51

Source: paper PMC6657692
